molecular target: recombinant human ALK enzyme (ALK WT) (Homo sapiens, UniProt Q9UM73); construct: purchased Carna Biosciences 08-518; assay: ALK WT cell free enzymatic assay (TR-FRET); type: biochemical; conditions: compound at 1 μM; 30 min pre-incubation; 1 μM ATP
Sequence (Q9UM73 1058-1620 limits assumed): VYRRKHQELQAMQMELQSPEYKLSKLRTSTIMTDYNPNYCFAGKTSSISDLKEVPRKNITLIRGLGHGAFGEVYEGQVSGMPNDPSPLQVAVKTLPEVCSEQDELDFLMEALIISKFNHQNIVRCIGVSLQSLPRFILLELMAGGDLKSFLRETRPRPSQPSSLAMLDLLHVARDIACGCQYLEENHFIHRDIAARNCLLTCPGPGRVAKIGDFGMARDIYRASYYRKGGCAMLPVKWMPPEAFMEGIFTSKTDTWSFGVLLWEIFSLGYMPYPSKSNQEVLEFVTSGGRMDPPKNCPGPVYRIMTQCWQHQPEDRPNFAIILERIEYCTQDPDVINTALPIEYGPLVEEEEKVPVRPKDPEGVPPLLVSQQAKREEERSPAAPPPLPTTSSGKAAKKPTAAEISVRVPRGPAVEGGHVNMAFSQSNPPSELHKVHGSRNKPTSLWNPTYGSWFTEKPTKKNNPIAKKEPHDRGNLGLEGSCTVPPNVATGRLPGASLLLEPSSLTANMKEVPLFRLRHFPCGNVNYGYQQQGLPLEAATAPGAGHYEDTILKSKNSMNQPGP
recorded-endpoint: inhibition at 1 µM (%)

COc1ccc(-c2cnc3[nH]cc(-c4cnn(CCc5ccccc5F)c4)c3c2)cc1NS(C)(=O)=O	92
Cc1nn(Cc2cccc(F)c2)c(C)c1-c1c[nH]c2ncc(-c3cccc(N4CCN(CCO)CC4)c3)cc12	96
c1ccc(CCn2cc(-c3c[nH]c4ncc(-c5cccc(OC6CCNCC6)c5)cc34)cn2)cc1	98
OC1CCN(c2ccc(-c3cnc4[nH]cc(-c5cnn(Cc6cccc(F)c6)c5)c4c3)cc2)CC1	96
Cc1nn(Cc2cccc(F)c2)cc1-c1c[nH]c2ncc(-c3ccc(C4CCNCC4)cc3)cc12	100

a = c1ccc(CCn2cc(-c3c[nH]c4ncc(-c5ccc(N6CCNCC6)nc5)cc34)cn2)cc1
b = COc1ccc(-c2cnc3[nH]cc(-c4cnn(Cc5cccc(F)c5)c4)c3c2)cc1NS(=O)(=O)C1CC1
Exercise: Compare a and b and name the one whose reported inhibition at 1 µM is smaller. Give the chosen item's label as your response.
Solution: b
(b: 66%, a: 95%)

A = Cc1nn(Cc2cccc(F)c2)c(C)c1-c1c[nH]c2ncc(-c3ccc(N4CCN(C[C@H](C)O)CC4)nc3)cc12
B = CC(C)(C)OC(=O)N1CCN(c2cccc(-c3cnc4[nH]cc(-c5cnn(Cc6cc(F)ccc6F)c5)c4c3)c2)CC1
Exercise: Compare A and B and name the one whose reported inhibition at 1 µM is smaller. Give the chosen item's label as your response.
Solution: B

A = CC(C)CN1CCN(c2ccc(-c3cnc4[nH]cc(-c5cnn(Cc6cccc(F)c6)c5)c4c3)cn2)CC1
B = COc1ccc(-c2cnc3[nH]cc(-c4c(C)nn(Cc5cccc(F)c5)c4C)c3c2)c(OC)c1NS(C)(=O)=O
Exercise: Identify the entry with the larger inhibition at 1 µM. Options: A and B Give the chosen item's label as your response.
Solution: A

----------
target: recombinant human ALK enzyme (ALK WT) (Homo sapiens); construct: purchased Carna Biosciences 08-518; experiment: ALK WT cell free enzymatic assay (TR-FRET); format: biochemical; details: compound at 100 nM; 30 min pre-incubation; 1 μM ATP
Where a name gives a salt, the structure may show the parent alone.
recorded-endpoint: inhibition at 0.1 µM (%)

Previously resolved entries follow.
C[C@H](O)CN1CCN(c2ccc(-c3cnc4[nH]cc(-c5cnn(CCc6ccccc6)c5)c4c3)cn2)CC1	60
Cc1nn(Cc2cccc(F)c2)cc1-c1c[nH]c2ncc(-c3cccc(N4CCNCC4)c3)cc12	93
CS(=O)(=O)Nc1cc(-c2cnc3[nH]cc(-c4cnn(Cc5cccc(F)c5)c4)c3c2)ccc1F	100
COc1cc(-c2cnc3[nH]cc(-c4cnn(Cc5cccc(F)c5)c4)c3c2)cnc1N1CCNCC1	96
CN1CCN(c2ccc(-c3cnc4[nH]cc(-c5cnn(Cc6cccc(F)c6)c5)c4c3)cn2)CC1	99

A = COCCN1CCN(c2ccc(-c3cnc4[nH]cc(-c5cnn(Cc6cccc(F)c6)c5)c4c3)cn2)CC1
B = CC(=O)Nc1cccc(Cn2nc(C)c(-c3c[nH]c4ncc(-c5ccc(N6CCNCC6)cc5)cc34)c2C)c1
C = CCOc1cccc(Cn2nc(C)c(-c3c[nH]c4ncc(-c5ccc(N6CCNCC6)cc5)cc34)c2C)c1 [Example 54, hydrochloride]
D = Fc1cc(-c2cnc3[nH]cc(-c4ccn(CCc5ccccc5)n4)c3c2)ccc1C1CCNCC1
Exercise: Provide the items ranked by increasing inhibition at 0.1 µM. Please list the labels in the order you were asked to rank them.
Solution: C, D, B, A

Cited source: patent US9353107B2
